Test system: M. mucogenium group
Experiment: MIC (CLSI broth dilution), RGM isolates
Type: cell-based
Conditions: isolate 41, M. mucogenicum group, M. mucogenicum; read-out: MIC
Reported Metric: MIC

Value of MIC reported for the molecule CC(=O)NC[C@H]1CN(c2ccc(N3CCOCC3)c(F)c2)C(=O)O1 is ≤ 2 µg/mL

Field MIC (entry CO[C@@]1(NC(=O)Cc2cccs2)C(=O)N2C(C(=O)O)=C(COC(N)=O)CS[C@@H]21 ) reads ≤ 16 µg/mL

Input CN(C)c1ccc(O)c2c1C[C@H]1C[C@H]3[C@H](N(C)C)C(O)=C(C(N)=O)C(=O)[C@@]3(O)C(O)=C1C2=O . Output MIC: ≤ 0.5 µg/mL

###

Test system: M. fortuitum group
Experiment: MIC (CLSI broth dilution), RGM isolates
Format: cell-based
Settings: Mycolicibacterium fortuitum, isolate 30, M. fortuitum group, M. porcinum/M. boenickei; read-out: MIC
Reported Metric: MIC

For this molecule ( COc1c(N2C[C@@H]3CCCN[C@@H]3C2)c(F)cc2c(=O)c(C(=O)O)cn(C3CC3)c12 [MXF, moxifloxacin] ), measured MIC is ≤ 0.06 µg/mL

// field: MIC; key: CC(=O)NC[C@H]1CN(c2ccc(N3CCOCC3)c(F)c2)C(=O)O1 [linezolid] ; value = ≤ 2 µg/mL

Looking up CO[C@@]1(NC(=O)Cc2cccs2)C(=O)N2C(C(=O)O)=C(COC(N)=O)CS[C@@H]21 [FOX, cefoxitin] , I found its MIC recorded as ≤ 16 µg/mL

###

Tested on: M. fortuitum group
Test: MIC (CLSI broth dilution), RGM isolates
Format: cell-based
Details: Mycolicibacterium fortuitum, isolate 33, M. fortuitum group, M. senegalense; read-out: MIC
Reported Metric: MIC

Tested on M. fortuitum group, the item CN(C)c1ccc(O)c2c1C[C@H]1C[C@H]3[C@H](N(C)C)C(O)=C(C(N)=O)C(=O)[C@@]3(O)C(O)=C1C2=O [minocycline] showed MIC equal to ≤ 0.5 µg/mL

Response field MIC (M. fortuitum group) for item CO[C@@]1(NC(=O)Cc2cccs2)C(=O)N2C(C(=O)O)=C(COC(N)=O)CS[C@@H]21 [FOX, cefoxitin] : < 16 µg/mL

# MIC measured on M. fortuitum group for item CC(=O)NC[C@H]1CN(c2ccc(N3CCOCC3)c(F)c2)C(=O)O1 [linezolid] = ≤ 2 µg/mL

Hello, the source for this data is patent US20250332178A1, in case you need it.
